ASSAY_NAME: chemical genetic growth profiling, strain panel (AID 1159580);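 note: tested at 20 µM; growth read once vehicle control cultures reached saturation at 30 °C; 1 = growth at the plate median or of vehicle wells; lower values mean less growth of the strain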
COND: S. cerevisiae deletion strains, growth OD, locus YBR171W, strain sec66, hits give low values
About 2,000 (36%) of roughly 5,500 compounds were called active. Inconclusive results (about 18%) are left out. This is one part of the list.
MEASUREMENT_TYPE: normalized growth
Numbers only.

COMPOUND	MEASURED
O=C(NC(Cc1cc(=O)[nH]c2ccccc12)C(=O)O)c1ccc(Cl)cc1 (configuration not stated)	0.992

List normalized growth for every entry below, keeping the order given.
1. CCOC(=O)c1ccc(N)cc1
2. CCCN(CCC)C(=O)C(CCC(=O)O)NC(=O)c1ccccc1 (configuration not stated)
3. O=C(O)CCC(=O)c1ccc(-c2ccccc2)cc1
4. O=C(O)CCCCC1SCC2NC(=O)NC21 (configuration not stated)

Out:
1.03
0.98
0.983
0.996

Parameters: items (list). Returns: normalized growth for each item.
1. COP(=S)(OC)Oc1ccc(SC)c(C)c1
2. COc1ccc(/C=C/c2cc(O)cc(O)c2)cc1

Out:
[0.992, 1.02]

* * *

ASSAY_NAME: chemical genetic growth profiling, strain panel (AID 1159580)
COND: S. cerevisiae deletion strains, growth OD, locus YOR265W, strain rbl2, hits give low values
The campaign covered roughly 5,500 compounds. About 2,000 (36%) were called active. Inconclusive results (about 18%) are left out. The list shows a part of the results.
MEASUREMENT_TYPE: normalized growth
Answers are plain numbers.

Worked cases, normalized growth given:
COMPOUND	normalized growth
OC1CCCCC1N1CCC(c2ccccc2)CC1 (stereo not given)	0.993
C[C@](N)(Cc1ccc(O)c(O)c1)C(=O)O	0.956

Record normalized growth per entry; entries follow.
1. CCCN(CCC)C(=O)C(CCC(=O)O)NC(=O)c1ccccc1 (stereo not given)
2. CO[C@@H]1[C@@H](O[C@@H]2O[C@H](C)[C@@H](O[C@H]3C[C@@](C)(O)[C@H](O)[C@H](C)O3)[C@H](N(C)C)[C@H]2O)[C@@H](CC=O)C[C@@H](C)[C@@H](O[C@H]2CC[C@H](N(C)C)[C@@H](C)O2)/C=C/C=C/C[C@H](C)OC(=O)C[C@H]1O

Out:
0.987
1.01

Report normalized growth for every entry below.
1. CCn1cc(C(=O)O)c(=O)c2cnc(N3CCCC3)nc21
2. Nc1nc2c(c(=O)[nH]1)N(C=O)C(CNc1ccc(C(=O)N[C@@H](CCC(=O)O)C(=O)O)cc1)CN2 (stereo not given in full)
3. CN(Cc1cnc2nc(N)nc(N)c2n1)c1ccc(C(=O)NC(CCC(=O)O)C(=O)O)cc1 (stereo not given)
4. CCOC(=O)CCCCCCCCCCCCC1C=CCC1 (stereo not given)
5. C[C@@H]1C[C@@H]([C@H](O)CC2CC(=O)NC(=O)C2)C(=O)[C@@H](C)C1
6. CC(=O)O[C@H]1C[C@@H](OC(C)=O)C(C)(C)C2C[C@@H](OC(C)=O)[C@]3(C)C(CC[C@@]4(C)[C@H](c5ccoc5)C(=O)[C@H]5O[C@]543)[C@]21C (stereo not given in full)
7. CCCN(CCC)CCc1cccc2c1CC(=O)N2
8. Cc1ccc(C(C)C)cc2c(C)ccc1-2

Out:
1: 1.01; 2: 0.965; 3: 0.911; 4: 0.982; 5: 0.0548; 6: 0.997; 7: 0.972; 8: 0.992

Dear colleague, could you please provide normalized growth for the compounds listed below?
1. CC1(C)O[C@@H]2[C@@H](CO[C@@]3(COS(N)(=O)=O)OC(C)(C)O[C@@H]23)O1
2. O=C(O)c1cc(=O)c(O)c2c(O)c(O)ccc2c1
3. CC(COc1ccccc1)N(CCCl)Cc1ccccc1 (stereo not given)
4. C=CCc1cc(OC)c2c(c1OC)OCO2
5. CCC(COC(=O)c1cc(OC)c(OC)c(OC)c1)(c1ccccc1)N(C)C (stereo not given)
6. CC12CCC(CC1)C(C)(C)O2

Out:
[1, 0.993, 0.997, 0.967, 0.976, 0.999]

Field: normalized growth. Fill in for each record below.
1. CC1=CC(=O)CC(C)(C)C1(O)/C=C/C(C)=C\C(=O)O (stereo not given)
2. Nc1ccc(S(=O)(=O)Nc2nccs2)cc1
3. C=CCN1CC[C@]23c4c5ccc(O)c4OC2C(=O)CC[C@@]3(O)[C@H]1C5 (stereo not given in full)
4. COc1ccc(/C=C/C(=O)c2cc(O)ccc2O)cc1
5. COc1ccc(CN(CCN(C)C)c2ncccn2)cc1

Out:
[1.03, 1.02, 0.983, 0.425, 1.02]

* * *

ASSAY_NAME: chemical genetic growth profiling, strain panel (AID 1159580);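 note: tested at 20 µM; growth read once vehicle control cultures reached saturation at 30 °C; 1 = growth at the plate median or of vehicle wells; lower values mean less growth of the strain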
COND: S. cerevisiae deletion strains, growth OD, locus YCL061C, strain MRC1, hits give low values
The whole screen tested about 5,500 compounds, of which about 2,000 (36%) were called active. Roughly 18% stayed inconclusive and do not appear here. The list shows a part of the results.
I'd be grateful if you could share measured normalized growth for these entries.
Answers are plain numbers.

Worked set:
COMPOUND	MEASURED
CC(=O)OCC(=O)[C@@]12OC(C)(C)O[C@@H]1CC1C3C[C@H](F)C4=CC(=O)C=C[C@]4(C)[C@@]3(F)[C@@H](O)C[C@@]12C (some centres undefined)	1.01
CC(=O)O[C@H]1C[C@@H](OC(C)=O)C(C)(C)C2C[C@@H](OC(C)=O)[C@]3(C)C(CC[C@@]4(C)[C@H](c5ccoc5)C(=O)[C@H]5O[C@]543)[C@]21C (some centres undefined)	0.997
CC[C@]1(O)CC2CN(CCc3c([nH]c4ccccc34)[C@@](C(=O)OC)(c3cc4c(cc3OC)N(C=O)[C@H]3[C@@](O)(C(=O)OC)[C@H](OC(C)=O)[C@]5(CC)C=CCN6CC[C@]43[C@@H]65)C2)C1 (some centres undefined)	0.971

Consider the record given below.
In: Would you kindly share the measured normalized growth for CCOC(N)=O ?
Out: 0.995

* * *

ASSAY_NAME: chemical genetic growth profiling, strain panel (AID 1159580);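 note: tested at 20 µM; growth read once vehicle control cultures reached saturation at 30 °C; 1 = growth at the plate median or of vehicle wells; lower values mean less growth of the strain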
COND: S. cerevisiae deletion strains, growth OD, locus YJL095W, strain BCK1, hits give low values
The campaign covered roughly 5,500 compounds. About 2,000 (36%) were called active. Roughly 18% stayed inconclusive and do not appear here. Some of the results follow.
MEASUREMENT_TYPE: normalized growth
Numbers only.

Worked examples follow.
COMPOUND	MEASURED
N=C(N)SCc1nc(-c2ccc(Cl)cc2)no1	1.01
O=C(Nc1cccc(C(F)(F)F)c1)Oc1ccc(F)cc1Cl	0.955
C[C@](N)(Cc1ccc(O)c(O)c1)C(=O)O	1.02
COc1ccc(/C=C/c2cc(O)cc(O[C@@H]3O[C@H](CO)[C@@H](O)[C@H](O)[C@H]3O)c2)cc1O	1.01
CCOC(=O)C(C)(N)Cc1ccc(O)c(O)c1 (configuration not stated)	1.02
Cc1cc(C(=O)O/N=C(/N)c2ccc([N+](=O)[O-])o2)no1	0.796
O=C(NC(=O)c1c(F)cccc1F)Nc1cc(Cl)c(OC(F)(F)C(F)C(F)(F)F)cc1Cl (configuration not stated)	1.04
COc1ccc(CN(CCN(C)C)c2ncccn2)cc1	1
Clc1ccc(-c2noc(CSC3=NCCN3)n2)cc1	0.949
COc1cc(C(=O)O)c(O)c2c1OCO2	1.01

Below is a list of compounds. For each, state its recorded normalized growth.
1. COc1ccccc1OCC(O)CN1CCN(CC(=O)Nc2c(C)cccc2C)CC1 (configuration not stated)
2. OC(c1ccc(C(F)(F)F)cc1)c1cccc(C(F)(F)F)c1 (configuration not stated)
3. C/C(=N/OC(=O)Nc1ccc(Cl)cc1)c1ccc2c(c1)CCO2
4. CSc1c(C#N)c(-c2ccc(Cl)cc2)nn1C(=O)c1ccccc1Cl
5. O=C(NCc1ccco1)c1csc(C2COc3ccccc3O2)n1 (configuration not stated)
6. C[C@](N)(Cc1ccc(O)cc1)C(=O)O

Out:
1.02
0.953
0.69
0.9
0.689
1.05

Give normalized growth for each listed item.
1. Cc1nc(C(F)(F)F)c(C(=O)O/N=C(/N)c2ccc(Cl)cc2)s1
2. CCOc1ccc2c(c1)C(C)=CC(C)(C)N2
3. CCCN(CCC)CCc1cccc2c1CC(=O)N2
4. Cc1cc(C(=O)O/N=C(/N)c2ccc(C(C)(C)C)cc2)no1
5. CCCSP(=O)(OCC)SCCC

Out:
1. 0.818
2. 0.971
3. 1.01
4. 0.772
5. 1.04

In: // lookup normalized growth for COc1cc2c3cc1Oc1cc(ccc1O)OC1c4c(cc(OC)c(O)c4Oc4ccc(cc4)CC3N(C)CC2)CCN1C (configuration not stated)
Out: 1.03

* * *

ASSAY_NAME: chemical genetic growth profiling, strain panel (AID 1159580);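 note: tested at 20 µM; growth read once vehicle control cultures reached saturation at 30 °C; 1 = growth at the plate median or of vehicle wells; lower values mean less growth of the strain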
COND: S. cerevisiae deletion strains, growth OD, locus YKL009W, strain mrt4, hits give low values
Hit rate of the full screen: of about 5,500 compounds, about 2,000 (36%) were called active. Roughly 18% stayed inconclusive and do not appear here. This is one part of the list.
Task for the reader: assign each of the following molecules its reported normalized growth.
Answers are plain numbers.

MOLECULE	normalized growth
O=c1ccn([C@@H]2O[C@H](COP(=O)(O)OP(=O)(O)OP(=O)(O)O)[C@@H](O)[C@H]2O)c(=O)[nH]1	0.979
CC(=O)C1=C(O)C2C3c4c[nH]c5cccc(c45)CC3C(C)(C)N2C1=O (centres undefined)	1.03
CCOP(=S)(OCC)SCSCC	1.01

Let us move to another entry and its normalized growth.
In: What measured normalized growth goes with CO[C@@H]1[C@@H](O[C@@H]2O[C@H](C)[C@@H](O[C@H]3C[C@@](C)(O)[C@H](O)[C@H](C)O3)[C@H](N(C)C)[C@H]2O)[C@@H](CC=O)C[C@@H](C)[C@@H](O[C@H]2CC[C@H](N(C)C)[C@@H](C)O2)/C=C/C=C/C[C@H](C)OC(=O)C[C@H]1O ?
Out: 0.969
